Reported Control by item:
- target.of.assay: Aromatase (Rattus norvegicus)
- Sequence (P22443 whole entry): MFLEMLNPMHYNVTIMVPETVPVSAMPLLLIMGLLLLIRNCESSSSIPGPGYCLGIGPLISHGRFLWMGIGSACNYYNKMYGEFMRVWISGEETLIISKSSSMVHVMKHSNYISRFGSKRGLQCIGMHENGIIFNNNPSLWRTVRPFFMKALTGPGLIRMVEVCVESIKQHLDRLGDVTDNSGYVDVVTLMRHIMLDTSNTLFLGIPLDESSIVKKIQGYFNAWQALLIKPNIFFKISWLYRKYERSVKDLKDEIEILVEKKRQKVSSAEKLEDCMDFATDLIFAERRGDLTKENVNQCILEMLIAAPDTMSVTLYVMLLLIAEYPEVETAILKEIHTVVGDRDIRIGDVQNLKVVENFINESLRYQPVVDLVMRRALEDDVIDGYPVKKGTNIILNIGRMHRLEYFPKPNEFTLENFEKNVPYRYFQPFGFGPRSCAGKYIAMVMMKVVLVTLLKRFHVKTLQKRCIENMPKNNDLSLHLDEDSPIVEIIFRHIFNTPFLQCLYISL
- experimental.protocol: In vivo reduction in serum estradiol in PMSG-primed rats after 6 hr at 5 mg/kg oral dose
- Assay type: functional, organism-based
- Parameters: dose 5 mg/kg, route oral; scale not given: the % may be the effect or the level left
Report the value in % with no unit label.

Would you please look over these solved cases?
CSSCC[C@]12CCC(=O)C=C1CCC1C2=CC[C@]2(C)C(=O)CCC12 (stereo not given in full)	23
CSCC[C@]12CCC(=O)C=C1CCC1C2=CC[C@]2(C)C(=O)CCC12 (stereo not given in full)	50
CC(=O)SCC[C@]12CCC(=O)C=C1CCC1C2=CC[C@]2(C)C(=O)CCC12 (stereo not given in full)	10
C=CSCC[C@]12CCC(=O)C=C1CCC1C2=CC[C@]2(C)C(=O)CCC12 (stereo not given in full)	24

State the recorded Control for this entry: CSC(=O)C[C@]12CCC(=O)C=C1CCC1C2CC[C@]2(C)C(=O)CCC12 (stereo not given in full)
49

---

Overview of recorded Control for various molecules
- target.of.assay: UniProt:P22443
- experimental.protocol: In vivo reduction in serum estradiol in PMSG-primed rats after 2 hr at 5 mg/kg oral dose
- Format: functional, organism-based
- Set-up: dose 5 mg/kg, route oral; scale not given: the % may be the effect or the level left
// return numeric value only (unit: %, not printed)

C=CSCC[C@]12CCC(=O)C=C1CCC1C2=CC[C@]2(C)C(=O)CCC12 (stereo partly drawn)	25
CSC(=O)C[C@]12CCC(=O)C=C1CCC1C2CC[C@]2(C)C(=O)CCC12 (stereo partly drawn)	37

Query molecule follows.
What Control value was documented for this molecule, CC(=O)SCC[C@]12CCC(=O)C=C1CCC1C2=CC[C@]2(C)C(=O)CCC12 (stereo partly drawn) ?
21

---

Measured pIC50 (Aromatase (Homo sapiens, UniProt P11511))
Please keep in mind that pIC50 is minus log10 of the molar concentration; only the number is needed.

Use these answered entries as a reference point.
C#CCSCC[C@]12CCC(=O)C=C1CCC1C2=CC[C@]2(C)C(=O)CCC12 (stereo not given in full)	6.00
CCSCC[C@]12CCC(=O)C=C1CCC1C2=CC[C@]2(C)C(=O)CCC12 (stereo not given in full)	6.06
C#CSCC[C@]12CCC(=O)C=C1CCC1C2=CC[C@]2(C)C(=O)CCC12 (stereo not given in full)	6.48
CSCC[C@]12CCC(=O)C=C1CCC1C2=CC[C@]2(C)C(=O)CCC12 (stereo not given in full)	7.92
C[C@]12CC=C3C(CCC4=CC(=O)CC[C@@]43CCSc3ccccc3)C1CCC2=O (stereo not given in full)	6.40

Find pIC50 (Aromatase (Homo sapiens, UniProt P11511)) for the entry COCC[C@]12CCC(=O)C=C1CCC1C2=CC[C@]2(C)C(=O)CCC12 (stereo not given in full)
5.00

Please state recorded pIC50 (tested on Aromatase (Homo sapiens, UniProt P11511)) of CSC(=O)C[C@]12CCC(=O)C=C1CCC1C2CC[C@]2(C)C(=O)CCC12 (stereo not given in full)
Sequence (P11511 whole entry): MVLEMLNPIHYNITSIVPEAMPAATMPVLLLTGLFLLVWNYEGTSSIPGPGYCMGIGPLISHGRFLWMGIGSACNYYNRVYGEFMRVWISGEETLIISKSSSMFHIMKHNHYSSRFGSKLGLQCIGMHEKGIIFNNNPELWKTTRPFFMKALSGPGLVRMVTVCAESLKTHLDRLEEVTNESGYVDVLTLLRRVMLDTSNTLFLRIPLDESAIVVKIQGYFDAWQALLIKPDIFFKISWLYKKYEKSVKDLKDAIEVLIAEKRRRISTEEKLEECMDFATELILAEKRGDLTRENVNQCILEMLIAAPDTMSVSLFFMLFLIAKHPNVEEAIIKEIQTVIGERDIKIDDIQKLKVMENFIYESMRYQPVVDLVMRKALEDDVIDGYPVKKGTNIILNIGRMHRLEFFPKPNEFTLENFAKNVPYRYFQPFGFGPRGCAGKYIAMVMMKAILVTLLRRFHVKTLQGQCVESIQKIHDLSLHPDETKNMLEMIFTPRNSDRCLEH
7.38

Requested read-out pIC50, target or system Aromatase (Homo sapiens, UniProt P11511), entry C=CCSCC[C@]12CCC(=O)C=C1CCC1C2=CC[C@]2(C)C(=O)CCC12 (stereo not given in full)
6.57

Request - read-out pIC50 | tested on Aromatase (Homo sapiens, UniProt P11511) | compound CSCC[C@]12CCC(=O)C=C1CCC1C2CC[C@]2(C)C(=O)CCC12 (stereo not given in full)
7.66

Each recorded value in this set is attributed to ChEMBL document CHEMBL1129479.
